Target: Nucleoprotein (Lymphocytic choriomeningitis virus (strain Armstrong))
Assay: qHTS for Inhibitors of the Functional Ribonucleoprotein Complex (vRNP) of Lymphocytic Choriomeningitis Arenaviruses (LCMV): LCMV Primary Screen - GLuc reporter signal (AID 1347086); also: nearly all actives have a fitted effect of over 70% in size
Conditions: LCMV minigenome vRNP cell assay, Gaussia luciferase reporter; series mostly up to 57.5 µM
Records with an inconclusive call do not appear. Activity calls are given as the source filed them. Calls follow the shape of the full dose curve.
Give your call using only these classes: YES = active, NO = inactive

molecule=CCCCCCCCCCCCCCCC(=O)OC(CO)CO subject_of_test="Nucleoprotein (Lymphocytic choriomeningitis virus (strain Armstrong))" qualitative_label=NO
molecule=O=S(=O)(O)CCSSCCS(=O)(=O)O subject_of_test="Nucleoprotein (Lymphocytic choriomeningitis virus (strain Armstrong))" qualitative_label=NO
molecule=C[C@@H]1[C@H](C)CC[C@]2(C(=O)O)CC[C@]3(C)C(=CC[C@@H]4[C@@]5(C)CC[C@H](O)C(C)(C)[C@H]5CC[C@]43C)[C@@H]12 subject_of_test="Nucleoprotein (Lymphocytic choriomeningitis virus (strain Armstrong))" qualitative_label=NO
molecule=CCC(=O)NC[C@H](Cc1ccc(OCCc2nc(-c3ccccc3)oc2C)cc1)NC(C)=CC(=O)c1ccc(C(F)(F)F)cc1 subject_of_test="Nucleoprotein (Lymphocytic choriomeningitis virus (strain Armstrong))" qualitative_label=NO
molecule=CC/C=C\CC1=C(C)CCC1=O subject_of_test="Nucleoprotein (Lymphocytic choriomeningitis virus (strain Armstrong))" qualitative_label=NO
molecule=CC(C)c1onc(-c2c(Cl)cccc2Cl)c1COc1ccc(C=Cc2cccc(C(=O)O)c2)c(Cl)c1 subject_of_test="Nucleoprotein (Lymphocytic choriomeningitis virus (strain Armstrong))" qualitative_label=NO
molecule=COc1c(C(=O)/C=C/c2ccccc2)ccc2c1C=CC(C)(C)O2 subject_of_test="Nucleoprotein (Lymphocytic choriomeningitis virus (strain Armstrong))" qualitative_label=NO
molecule=CC1(C)Oc2ccc3ccc(=O)oc3c2C[C@H]1O[C@@H]1O[C@H](CO)[C@@H](O)[C@H](O)[C@H]1O subject_of_test="Nucleoprotein (Lymphocytic choriomeningitis virus (strain Armstrong))" qualitative_label=NO

Please indicate how the test categorized CC(C=CC=C(C)C=CC1=C(C)CCCC1(C)C)=CC=CC=C(C)C=CC=C(C)C=CC1=C(C)CCCC1(C)C .
NO

Please do the same for COc1cc(C(O)C(=O)O)ccc1O (stereo unspecified) as well.
NO

Please do the same for CCN1C[C@]2(COC(=O)c3ccccc3N3C(=O)CC(C)C3=O)CC[C@H](OC)[C@@]34C5C[C@@H]6[C@@H](OC)C[C@@](O)(C5[C@H]6OC)[C@](O)([C@@H](OC)C23)[C@@H]14 (stereo partly specified) as well.
NO

Please do the same for CC(C)(O)[C@@H]1CC(=O)[C@]2(C)[C@H](CC[C@@]3(C)[C@H](c4ccoc4)OC(=O)[C@H]4O[C@]432)[C@@]1(C)/C=C\C(=O)O as well.
NO

Please do the same for OC[C@H]1O[C@@H](Oc2ccc(O)cc2)[C@H](O)[C@@H](O)[C@H]1O as well.
NO

Please do the same for NCCC(=O)c1ccccc1N as well.
NO

Please do the same for CCc1cc(C(C)=NOCc2ccc(C3CCCCC3)c(C(F)(F)F)c2)ccc1CN1CC(C(=O)O)C1 as well.
NO

Please do the same for CC(=O)O[C@H]1Cc2ccccc2N(C(N)=O)c2ccccc21 as well.
NO
